Values were extracted from PubChem BioAssay (NCI).

Test system: OVCAR-3 ovarian
Assay: NCI tumour cell line growth inhibition, 48 h
Would you kindly list GI50 for each of these compounds?

// each compound listed below needs its GI50
1. O=S(=O)(NC1=NCCN1C(=S)SN1CCn2c1nsc2=S)c1ccc(OC(F)(F)F)cc1
2. O=C([O-])CC(=O)[O-].O=C([O-])CC(=O)[O-].[K+].[Pd+2]
3. O=C(Nc1ccccc1)NS(=O)(=O)c1ccc(-n2nc3c(c2-c2cccs2)Cc2ccccc2-3)cc1

output:
7.63 µM
> 100 µM
21.8 µM

* * *

Test system: HCC-2998 colon
Experiment: NCI tumour cell line growth inhibition, 48 h
READOUT TYPE: TGI (µM)
Answers are plain numbers, in µM.

TEST SMILES | TGI [µM]
COc1cc(CNc2cnc3cc(N)cc(N)c3n2)cc(OC)c1 | 25

Shifting focus to the molecule that follows.
input: Consider the molecule shown here: `NC(=O)c1cccc2cn(-c3ccc([C@@H]4CCCNC4)cc3)nc12` What is its recorded TGI?
output: 34.3

* * *

Tested on: KM20L2 colon
Assay: NCI tumour cell line growth inhibition, 48 h
READOUT TYPE: TGI

As a guide, the following entries are already answered.
COMPOUND | TGI
CC(C)CCCCCCCCCCCCC(=O)NCC(=O)NC1C(C)OC(Nc2ncnc3c2ncn3C)C(O)C1O (stereo not drawn) | > 100 µM
CNC(=O)C(C)C1CCC2(C)C=CC(=O)C(C)=C2C1O (stereo not drawn) | > 100 µM
CCCCCCCCCCCOc1ccc(C(=O)C(=O)c2ccc(OCCCCCCCCCCC)c(OCCCCCCCCCCC)c2)cc1OCCCCCCCCCCC | > 100 µM
Cc1c2cnccc2c(C)c2c1c1ccccc1n2CCCN | 0.989 µM

// each compound listed below needs its TGI
1. COc1ccccc1C12OC(=O)C1(C)Oc1ccccc1C2=O (stereo not drawn)
2. COC1(OC)CCC2C1C1CCC(OC)(OC)C21 (stereo not drawn)

output:
> 100 µM
> 50 µM

// each compound listed below needs its TGI
1. N#CN=C(N(Cc1ccccc1)Cc1ccccc1)N(Cc1ccccc1)Cc1ccccc1
2. COc1nc(N)c(C(=O)CCl)c(=O)n1C
3. CC(=O)NNc1nc(C)c(C(=O)NNC(=O)C(=O)Nc2c(Cl)cc([N+](=O)[O-])cc2Cl)s1

output:
> 100 µM
50.1 µM
> 100 µM

// each compound listed below needs its TGI
1. CC(=O)NNc1nc(C)c(C(=O)NNC(=O)C(=O)Nc2ccc(Cl)cc2)s1
2. CCOC(=O)CN1C(=O)c2cccc3cc([N+](=O)[O-])cc(c23)C1=O
3. COc1ccc(C(=O)C(C(=O)CCC(=O)Nc2ccc(C)c(C)c2)c2ccc(OC)cc2)cc1 (stereo not drawn)
4. O=C(/C=C/c1ccccc1)NC1C=Nc2ccc(Cl)cc2NC1=O (stereo not drawn)
5. Brc1ccc(N=c2nc3ccccn3n3nc(-c4ccccc4)cc23)cc1
6. N.N.N.N.O=[N+]([O-])[O-].[Co+3].[N-]=[N+]=[N-].[N-]=[N+]=[N-]
7. CC(N)Cc1ccc(C(=O)Cl)cc1 (stereo not drawn)
8. N#CCCN(CCC#N)c1ccc(/C=C2\N=C(c3cc([N+](=O)[O-])ccc3Cl)OC2=O)cc1

output:
> 100 µM
26.5 µM
> 100 µM
62.9 µM
> 100 µM
> 100 µM
> 100 µM
> 100 µM

input: Consider the compound shown here: O=C(CC1(O)C(=O)Nc2c(Cl)cc(Cl)cc21)c1ccc(Br)cc1Br (stereo not drawn) What is its recorded TGI?
output: 33.9 µM

* * *

Tested on: 786-0 renal
Experiment: NCI tumour cell line growth inhibition, 48 h
READOUT TYPE: TGI

// each compound listed below needs its TGI
1. O=C(NNC(=O)c1ccccc1SSc1ccccc1C(=O)NNC(=O)c1ccccc1S)c1ccccc1S
2. N.N.N.N.O=[N+]([O-])[O-].[Co+3].[N-]=[N+]=[N-].[N-]=[N+]=[N-]

output:
1: 98 µM; 2: > 100 µM

// each compound listed below needs its TGI
1. Cc1nc2ccccc2c(=O)n1-c1ccccc1I
2. N#CC1C(C#N)C2(c3ccccc3)C(c3ccccc3)=NN(c3ccccc3)CC12 (stereo not given)

output:
["> 100 µM", "> 100 µM"]

input: Consider the compound shown here: `CCCN=C1CCN(Cc2ccccc2)c2ccccc2N1` What is its recorded TGI?
output: > 100 µM

* * *

Tested on: NCI-H226 lung
Assay: NCI tumour cell line growth inhibition, 48 h
READOUT TYPE: TGI

TEST SMILES | TGI
O=C1C(Cl)=C(Nc2cccc(Cl)c2)C(=O)N1Cc1ccc(Cl)cc1Cl | 2.26 µM
CCCCCCCCCCCCCCCCCC(CCCCCCCCCCCCCCCCC)OP(=O)(O)O | > 100 µM
CC(C)CC(=O)OC[n+]1ccc(-c2c(COC(=O)NC(C)C)c(COC(=O)NC(C)C)c3n2CCC3)cc1 | > 100 µM

Shifting focus to the compound that follows.
input: Consider the compound shown here: `c1ccc2cc(-c3cc(-c4cc(-c5ccc6ccccc6c5)on4)no3)ccc2c1` What is its recorded TGI?
output: > 100 µM

* * *

Would you kindly list TGI for each of these compounds?
Test system: SNB-19 CNS
Assay: NCI tumour cell line growth inhibition, 48 h

As a guide, the following entries are already answered.
COMPOUND | READOUT TYPE | RESULT
O=S1(=O)c2ccccc2NC(c2ccc3ccccc3c2)CC1c1ccccc1F (stereo not drawn) | TGI | > 100 µM
CCOc1cc2c(cc1O)/C(=N\OC)C[C@@H]1[C@@H]2CC[C@]2(C)[C@@H](O)CC[C@@H]12 | TGI | > 100 µM
CN(C)C(=N)c1ccccc1 | TGI | > 100 µM
O=C(O)CCc1coc2ccc(O)cc12 | TGI | > 100 µM
CC1=CC2C(O1)C1C(=O)C=CC(=O)C1=CC2[N+](=O)[O-] (stereo not drawn) | TGI | > 72.4 µM

// each compound listed below needs its TGI
1. COC(=O)CC1CCN(C#N)CC1CC[N+](=O)[O-] (stereo not drawn)
2. CO[C@H](C(=O)[C@@H](O)[C@@H](C)O)[C@@H]1Cc2cc3cc(O[C@H]4C[C@@H](O[C@H]5C[C@@H](O)[C@H](O)C(C)O5)[C@H](O)C(C)O4)c(C)c(O)c3c(O)c2C(=O)[C@H]1O[C@H]1C[C@@H](O[C@H]2C[C@@H](O[C@H]3C[C@](C)(O)C(=O)C(C)O3)[C@@H](O)C(C)O2)[C@H](O)C(C)O1 (stereo partly drawn)

output:
1. > 100 µM
2. > 33.2 µM

// each compound listed below needs its TGI
1. COC(=O)C1CCC(=O)N1C(c1ccccc1)c1ccc(OC)c(OC)c1 (stereo not drawn)
2. O=[N+]([O-])C(=C1NCCN1)/C(Cl)=C(\Cl)Br
3. CCOC(=O)Nn1c(C)nnc1-c1ccccc1
4. N#CC(c1ccc(Cl)cc1)c1cccc(C(C#N)c2ccc(Cl)cc2)n1 (stereo not drawn)
5. O=C1C2C(C(=O)N1OS(=O)(=O)c1ccccc1)N(Cc1ccccc1)C(=O)N2Cc1ccccc1 (stereo not drawn)
6. COc1ccc(/C=C2\CCC(C)C3=C2NC(=S)NC3c2ccc(OC)c(OC)c2)cc1OC (stereo not drawn)

output:
1. > 100 µM
2. > 100 µM
3. > 100 µM
4. > 100 µM
5. > 100 µM
6. > 31.6 µM

* * *

Tested on: BT-549 breast
Assay: NCI tumour cell line growth inhibition, 48 h
READOUT TYPE: TGI

As a guide, the following entries are already answered.
TEST SMILES | RESULT
C=C(CN1CCN(c2ccc(Cl)cc2F)CC1)c1ccc(C(=O)Nc2ccccc2N)cc1 | > 65.3 µM
CCC[C@@H](O)C[C@@H]1CCC[C@H](C[C@@H](O)CC)N1C | > 100 µM

Shifting focus to the molecule that follows.
input: Consider the molecule shown here: `Oc1cccc2c(Cl)ccnc12` What is its recorded TGI?
output: > 100 µM

* * *

Test system: RPMI-8226 leukemia
Experiment: NCI tumour cell line growth inhibition, 48 h
Would you kindly list TGI for each of these molecules?

MOLECULE | TGI
O=C(Nc1ccccc1OC(F)(F)F)Nc1n[nH]c2ccccc12 | 53.1 µM
CN1CCN([C@H]2C[C@H]3[C@@H]4CC=C5C[C@@H](O)CC[C@]5(C)[C@H]4CC[C@]3(C)C2=O)CC1 | > 100 µM
O=C(O)c1cccc2c1/C(=N/Nc1ccccc1)CC2 | > 100 µM

Shifting focus to the molecule that follows.
input: Consider the molecule shown here: COc1ccc(C2c3cc4c(cc3OC(NNS(=O)(=O)c3ccc(C)cc3)C2C)OCO4)cc1 (centres undefined) What is its recorded TGI?
output: > 100 µM
